meta.source: PubChem BioAssay (NCI)

System: HCT-15 colon
test_method_notes: NCI tumour cell line growth inhibition, 48 h
Property: log10(TGI); scope: individual compounds
Values below are the log10 of the recorded TGI, with µM as the unit.

See these solved cases before continuing.
COc1cc2c(/C=C3/C(=O)N(C)c4ccc(O)cc43)c(Cl)[nH]c2cc1C ... 1.11
CCOC(=O)c1c(SC(=O)c2ccc(OC)cc2)n(-c2ccccc2)c(=S)n(-c2ccccc2)c1=O ... 1.68
CC(C)c1ccccc1SCc1cc(=O)cc(CSc2ccccc2C(C)C)o1 ... 1.97
CN(CCC(=O)/C(=C\c1ccccc1)c1ccc(Cl)cc1)Cc1ccccc1 ... 0.85
CC1(C)Cc2c(Br)c(Br)c(Br)c(OCC(O)CN3CCN(c4ccccn4)CC3)c2O1 (configuration not stated) ... 1.42

Now let's try a different one.
Tell me its log10(TGI) given CC(C)(C)N/N=C(\C(=O)NC1=C(Cl)C(=O)c2ccccc2C1=O)C1C=CCS1(=O)=O (configuration not stated) as the entry.
1.36

----------
Property: TGI; scope: individual compounds
Test system: NCI-H226 lung
test_method_notes: NCI tumour cell line growth inhibition, 48 h

See these solved cases before continuing.
C/C(=N\Nc1nc2ccccc2s1)c1cc2ccccc2cn1 ... 7.56 µM
O=C(NO)NCCCl ... > 100 µM
O=c1c2cc3c(cc2c2cccc4c2n1CCC4)OCO3 ... > 100 µM
COC(=O)c1cc(OC)c(OC)c(OC)c1-c1cc2c(cc1C=O)OCO2 ... > 10 µM

Now let's try a different one.
Tell me its TGI given Cn1cc(C2=C(Nc3ccccc3)C(=O)NC2=O)c2ccccc21 as the entry.
> 25 µM

----------
Tested on: SF-295 CNS
test_method_notes: NCI tumour cell line growth inhibition, 48 h
Property: TGI; scope: individual compounds

O=C(/C=C(\C(=O)c1cccs1)c1cccs1)c1ccc(C(=O)/C=C(\C(=O)c2cccs2)c2cccs2)cc1 ... > 100 µM
COc1ccc(NC(=O)CC(=O)n2nc(C)c(N=Nc3ccccc3C(=O)O)c2C)cc1 ... > 100 µM
CCC(C)C1=C(O)[N+]2([O-])Oc3ccc(-c4c(O)c(O)c(-c5ccc(OC(C)=O)cc5)c(OC(C)=O)c4OC(C)=O)cc3OC2(C(C)CC)C(=O)N1O (centres undefined) ... > 50 µM

Now let's try a different one.
Tell me its TGI given O=c1[nH]c(NCc2ccc(Cl)cc2)nc2nc[nH]c12 as the entry.
> 100 µM

----------
System: NCI-H23 lung
test_method_notes: NCI tumour cell line growth inhibition, 48 h; in the data active = GI50 below about 0.43 µM; inactive = the rest
# output must be one of active, inactive

COc1c(N2CCN(CN3C(=O)C(=O)c4cc(Cl)ccc43)C(C)C2)c(F)cc2c(=O)c(C(=O)O)cn(C3CC3)c12 (centres undefined) ... inactive
CC([O-])=C1C(=O)c2ccccc2C1=O.CC([O-])=C1C(=O)c2ccccc2C1=O.CC[O-].CC[O-].[Ti+4] ... inactive

# lookup: test call for COc1ccc(CCN2CCC(CN(C)Cc3cnn(-c4ccccc4)c3)CC2)cc1
inactive

# lookup: test call for CN(C)c1ccc(/C=N/S(=O)(=O)c2ccc(-n3c(-c4ccccc4)nc4c(Br)cc(Br)cc4c3=O)cc2)cc1
inactive

# lookup: test call for CCSC[C@@H]1C[C@](O)(c2ccc(F)cc2)[C@@H](c2ccc(F)cc2)O1
inactive

# lookup: test call for CCCCCCCCCCCCCC[n+]1ccc(C)cc1
inactive

# lookup: test call for COc1cc2c(c(OC)c1OC)-c1ccc(N=NC(N)=S)c(=O)cc1[C@@H](NC(C)=O)CC2
active

# lookup: test call for NC(CSSCC(N)C(=O)O)C(=O)O (centres undefined)
inactive

# lookup: test call for COc1cc(C)c2sc3ccccc3c(=O)c2c1NCCN(C)C
inactive
